Molecular target: UniProt P07943
Test: Inhibition of Wistar rat lens aldose reductase using D,L-glyceraldehyde as substrate incubated for 1 min measured for 4 mins by spectrophotometry
Settings: read-out: IC50
pIC50: −log10 of the molar value.
Each item that follows carries a reported pIC50.
PROPERTY_LABEL: pIC50

1. CC(C)(C)C(=O)c1cn(CC(=O)O)c2ccccc12; 4.86
2. O=C(O)Cn1c2ccccc2c2cn[nH]c(=O)c21; 4.94
3. O=C(O)Cn1cc(N2CCCC2)c2ccccc21; 4.33
4. O=C(O)Cn1c2c(c3ccccc31)CCC2; 5.54
5. Cc1cc(C)c(NC(=O)CSc2nnc3c4ccccc4n(CC(=O)O)c3n2)c(C)c1; 5.39
6. CCN(CC)Cc1cn(CC(=O)O)c2ccccc12; 4.52
7. O=C(O)Cn1cc(N2CCOCC2)c2ccccc21; 4.46
8. CCCNC(=O)CSc1nnc2c3cc(C)ccc3n(CC(=O)O)c2n1; 6.48
9. Cc1c(CN(C)C)c2ccccc2n1CC(=O)O; 4.38
10. CC(C)Sc1nnc2c3ccccc3n(CC(=O)O)c2n1; 5.69
11. O=C(O)Cn1c2ccccc2c2nn3c(nc4ccccc43)nc21; 5.00
12. O=C(O)Cn1ccc2ccccc21; 5.14
